B1: TPR t1 (parent)
chain: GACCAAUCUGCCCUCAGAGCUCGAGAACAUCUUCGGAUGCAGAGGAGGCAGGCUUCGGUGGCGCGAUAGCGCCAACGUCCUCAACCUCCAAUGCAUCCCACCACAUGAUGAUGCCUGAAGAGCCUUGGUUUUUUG

- Variants of: B1
- protocol.notes: polymerase ribozyme fitness, log enrichment relative to wild type (log ratio); higher = more active; in vitro selection for triplet polymerase activity
parameter: polymerase ribozyme fitness (log ratio)
Keep the answer to the number alone.

primary_sequence="GACCAAUCUGCCCUCAGAGCUCGAGAACGUCUUCGGAUGCAGAGGUGGCAGUCUUCUGUGGCGCGAUAGCGCCAACGUCUUCAACCGCCAAUGCAUCCCACCACAUGAUGAUGCGUGAAGAGCCUUGGUUUUUUG [A29G A46U G52U G57U C80U U87G C115G]" parameter="polymerase ribozyme fitness (log ratio)" obs_value=-5.18
primary_sequence="GACCAAACUGCCCUCAGAGCUCGAGAACAUCUUCGGAUGCAGAGGAGUCAGGCUUCGGUGGCGCGAUAGCGCCAACGUCCUCAACCUCCAAUGAAUUCCACCACAUGAUGAUGCCUGAAGAGCCUUGGUUUUUUG [U7A G48U C94A C97U]" parameter="polymerase ribozyme fitness (log ratio)" obs_value=-2.33
primary_sequence="GGCCAAUCUGCCCUCAGAGCUCGAGAACAUCUUCGGAUGAAGAGGAGGCAGGCUUCGAUGGCGCGAUAGCGCCAACGUCCUCAACCUCCAAUGCAUCCCACCACAUGAUGAUGCCUGAAGAGCCUUGGUUUUUUG [A2G C40A G58A]" parameter="polymerase ribozyme fitness (log ratio)" obs_value=-1.21

Turning now to a further record.
The variant listed as GACCAAUCUGCCCUCAGAGCUCGAGAACAUCUUCGGAUGCAGAGGAGGCAGGCUUCGGUAGCGCGAUAGCGCCAACGUCCUCAACCUCCAAUGUAUCCCACCACAUGAUGAUGCCUGAAGAGCUUUGGUUUUUUG [G60A C94U C124U] shows polymerase ribozyme fitness (log ratio) equal to 1.59
